experiment: Particle size and polydispersity index of nanoparticle compositions (Zetasizer Nano ZS); assay type: physicochemical; settings: nanoparticle composition 50:10:38.5:1.5 mol % (Table 1A)
Please go through the items and note down their PDI.
// no unit string in output, number only

Name the recorded PDI for CCCCCCCCCOC(=O)CCCCCCCN(CCCCCCCC(=O)OC(CCCCCCCC)CCCCCCCC)CCCN1C(=O)CNC1=O [Compound 174] .
0.12

Name the recorded PDI for CCCCCCCCCOC(=O)CCCCCCCN(CCCCCCCC(=O)OC(CCCCCCCC)CCCCCCCC)CCCNC(=S)NC [Compound 113] .
0.15

Name the recorded PDI for CCCCCCCCCOC(=O)CCCCCCCN(CCO)CCCCCCC(=O)OCC(CCCCCCCC)CCCCCCCC [Compound 143] .
0.19

Name the recorded PDI for CCCCCCCCCOC(=O)CCCCCCCN(CCCCCCCC(=O)OC(CCCCCCCC)CCCCCCCC)CCCNC(=S)N(C)C [Compound 111] .
0.14

Name the recorded PDI for CCCCCCCCC(CC)OC(=O)CCCN(CCO)CCCCCCCC(=O)OC(CCCCCCCC)CCCCCCCC (stereo not shown) [Compound 72] .
0.11

Name the recorded PDI for CCCCCCCCCOC(=O)CCCCCCCN(CCCCCCCC(=O)OC(CCCCCCCC)CCCCCCCC)CCCNc1c(N(C)C)c(=O)c1=O [Compound 169] .
0.18

Name the recorded PDI for CCCC/C=C\CCC(CC/C=C\CCCC)OC(=O)CCCCCCCN(CCO)CCCCCC(=O)OCCCCCCCCCCC [Compound 61] .
0.11

----------
Assay: Encapsulation of RNA by the nanoparticle composition (QUANT-IT RIBOGREEN RNA assay)
Assay type: physicochemical
Conditions: nanoparticle composition 50:10:38.5:1.5 mol % (Table 1A)
Source text: The efficiency of encapsulation of a therapeutic and/or prophylactic describes the amount of therapeutic and/or prophylactic that is encapsulated or otherwise associated with a nanoparticle composition after preparation, relative to the initial amount provided. The encapsulation efficiency is desirably high (e.g., close to 100%). […] Fluorescence may be used to measure the amount of free therapeutic and/or prophylactic (e.g., RNA) in a solution. […]
Please go through the items and note down their EE (%).
All answers are understood in %, so give the number only.

Name the recorded EE (%) for CCCCCCCCC(CCCCCCCC)OC(=O)CCCCCCCN(CCO)CCCC(=O)OC(CCCCC)CCCCCCCC (stereo not drawn) .
96.1

Name the recorded EE (%) for CCCCCCCCCOC(=O)CCCCCCCN(CCCCCCCC(=O)OC(CCCCCCCC)CCCCCCCC)CCCOC(=O)NC .
93.23

Name the recorded EE (%) for CCCCCCCCCOC(=O)CCCCCCCN(CCO)CCCCCCC(=O)OCC(CCCCCCCC)CCCCCCCC .
96.4

Name the recorded EE (%) for CCCCCC=CCC=CCCCCCCCCC(CCCCCCCCC=CCC=CCCCCC)OC(=O)CCCN(C)C (stereo not drawn) [MC3, reference compound] .
97.3

Name the recorded EE (%) for CCCCCCCCCOC(=O)CCCCCCCN(CCCCCCCC(=O)OC(CCCCCCCC)CCCCCCCC)CCCN/C(=N/C#N)N(C)C .
94.35

Name the recorded EE (%) for CCCCCCCCCOC(=O)CCCCCCCN(CCCCCCCC(=O)OC(CCCCCCCC)CCCCCCCC)C(C)CO (stereo not drawn) .
96.43

----------
tested on: rats; experiment: Residual lipid levels in liver and spleen of rats (UPLC-MS quantification); assay type: in vivo, rat; details: rats, 2 mpk, 48 h; assuming 300 g rat and 15 g liver
Please go through the items and note down their % Lipid Remaining in liver, 48 h* 2 mpk.
Note: state the figure and append the unit.

GET /values?readout=% Lipid Remaining in liver, 48 h* 2 mpk&system=rats&item= CCCCCC/C=C\COC(=O)CCCCCCCN(CCO)CCCCCCCC(=O)OC(CCCCCCCC)CCCCCCCC
0.016%

GET /values?readout=% Lipid Remaining in liver, 48 h* 2 mpk&system=rats&item= CCCCCC=CCC=CCCCCCCCCC(CCCCCCCCC=CCC=CCCCCC)OC(=O)CCCN(C)C (stereo not shown) [MC3, reference compound]
87%

GET /values?readout=% Lipid Remaining in liver, 48 h* 2 mpk&system=rats&item= CCCCCCCCCCCOC(=O)CCCCCN(CCO)CCCCCCCC(=O)OC(CCCCCCCC)CCCCCCCC
1.32%

GET /values?readout=% Lipid Remaining in liver, 48 h* 2 mpk&system=rats&item= CCCCCCCCC(C)OC(=O)CCCCCCCN(CCO)CCCCCCCC(=O)OC(CCCCCCCC)CCCCCCCC (stereo not shown)
7.22%

----------
Please go through the items and note down their % Lipid Remaining in liver, 48 h* 2 mpk.
tested on: rats; assay: Residual lipid levels in liver and spleen of rats (UPLC-MS quantification); format: in vivo, rat; details: rats, 2 mpk, 48 h; assuming 300 g rat and 15 g liver

GET /values?readout=% Lipid Remaining in liver, 48 h* 2 mpk&system=rats&item= CCCCCCCCC(CC)OC(=O)CCCCCCCN(CCO)CCCCCCCC(=O)OC(CCCCCCCC)CCCCCCCC (stereo not drawn)
12.6%

GET /values?readout=% Lipid Remaining in liver, 48 h* 2 mpk&system=rats&item= CCCCCCCCCOC(=O)CCCCCCCN(CCO)CCCCCCCOC(=O)C(CCCCCCCC)CCCCCCCC
<0.01%

GET /values?readout=% Lipid Remaining in liver, 48 h* 2 mpk&system=rats&item= CCCCCCCCCN(CCO)CCCCCCCC(=O)OC(CCCCCCCC)CCCCCCCC
14%

GET /values?readout=% Lipid Remaining in liver, 48 h* 2 mpk&system=rats&item= CCCCCCCCCOC(=O)CCCN(CCO)CCCCCCCC(=O)OC(CCCCCCCC)CCCCCCCC
20%

GET /values?readout=% Lipid Remaining in liver, 48 h* 2 mpk&system=rats&item= CCCCCCCCCOC(=O)CCCCCCCN(CCO)CCCCCCCC(=O)OC(CCCCCCCC)CCCCCCCC
0.018%

GET /values?readout=% Lipid Remaining in liver, 48 h* 2 mpk&system=rats&item= CCCCCCCCC(CCC)OC(=O)CCCCCCCN(CCO)CCCCCCCC(=O)OC(CCCCCCCC)CCCCCCCC (stereo not drawn)
15.9%

----------
Please go through the items and note down their PDI.
assay: Particle size and polydispersity index of nanoparticle compositions (Zetasizer Nano ZS); format: physicochemical; conditions: nanoparticle composition 50:10:38.5:1.5 mol % (Table 1A)
// no unit string in output, number only

Name the recorded PDI for CCCCCCCCCOC(=O)CCCCCCCN(CCCCCCCC(=O)OC(CCCCCCCC)CCCCCCCC)CCCNC(=O)N(C)C [Compound 110] .
0.13

Name the recorded PDI for CCCCCCCCCOC(=O)CCCCCCCN(CCCCCCCC(=O)OC(CCCCCCCC)CCCCCCCC)CCCN/C(=C/[N+](=O)[O-])NC [Compound 170] .
0.12

Name the recorded PDI for CCCCCCCCC(CCCCCCCC)OC(=O)CCCCCCCN(CCO)CCCC(=O)OC(CCCCC)CCCCCCCC (stereo not shown) [Compound 71] .
0.11

Name the recorded PDI for CCCCCCCCCOC(=O)CCCCCCCN(CCCCCCCC(=O)OC(CCCCCCCC)CCCCCCCC)C(CO)CO [Compound 156] .
0.072

Name the recorded PDI for CCCCCCCCC(CC)OC(=O)CCCCCCCN(CCO)CCCCCCCC(=O)OC(CCCCCCCC)CCCCCCCC (stereo not shown) [Compound 49] .
0.110

Name the recorded PDI for CCCCCCCCCOC(=O)CCCCCCCN(CCCCCCCC(=O)OC(CCCCCCCC)CCCCCCCC)CCCOC(=O)NC [Compound 175] .
0.2

Name the recorded PDI for CCCCCCCCCOC(=O)CCCCCCCN(CCCCCCCC(=O)OC(CCCCCCCC)CCCCCCCC)CCCNC(=O)NC [Compound 112] .
0.12

----------
Please go through the items and note down their Neutrophils (Concentration).
Test system: rat
Experiment: Clinical chemistry and hematology in rat after intravenous administration
Assay type: in vivo
Set-up: unit not given here
Settings: 2 mpk, 48 h post dose
Protocol: Sample formulations of nanoparticle compositions including different lipids were administered intravenously to rat at a dose of 2 mpk. The expression of various clinical markers was evaluated at 48 h post dose and compared to that induced by administration of MC3 formulations or phosphate buffered saline (PBS). […]
// no unit string in output, number only

Name the recorded Neutrophils (Concentration) for CCCCCC=CCC=CCCCCCCCCC(CCCCCCCCC=CCC=CCCCCC)OC(=O)CCCN(C)C (centres unmarked) [MC3, reference compound] .
4962.5

Name the recorded Neutrophils (Concentration) for CCCCCCCCCOC(=O)CCCCCCCN(CCO)CCCCCCCOC(=O)C(CCCCCCCC)CCCCCCCC .
3195

Name the recorded Neutrophils (Concentration) for CCCCCCCCCCCOC(=O)CCCCCN(CCO)CCCCCCCC(=O)OC(CCCCCCCC)CCCCCCCC .
1998

Name the recorded Neutrophils (Concentration) for CCCCCCCCCN(CCO)CCCCCCCC(=O)OC(CCCCCCCC)CCCCCCCC .
3388.5

Name the recorded Neutrophils (Concentration) for CCCCCC/C=C\COC(=O)CCCCCCCN(CCO)CCCCCCCC(=O)OC(CCCCCCCC)CCCCCCCC .
1790.5
